pIC50 for Activin receptor type-1 (Homo sapiens) - collated from the literature.
pIC50: −log10 of the molar value.
attributeMeasured: pIC50

Example compounds with recorded pIC50:
{"smilesInput": "CS(=O)(=O)c1cccc(Nc2ncc3cc(-c4ccc(O)cc4)ccc3n2)c1", "attributeMeasured": "pIC50", "obsValue": 5.07}
{"smilesInput": "O=c1[nH]cc(-c2ccnc3[nH]ccc23)cc1-c1nc2cc(N3CCCNCC3)ccc2[nH]1", "attributeMeasured": "pIC50", "obsValue": 7.42}
{"smilesInput": "CN1CCN(c2ccc3[nH]c(-c4cc(-c5cnc6[nH]ccc6c5)c[nH]c4=O)nc3c2)CC1", "attributeMeasured": "pIC50", "obsValue": 7.00}
{"smilesInput": "CCn1cc(-c2ccnc(Nc3ccc(N4CCN(CC(C)(C)O)CC4)cc3)n2)c(-c2cccnc2)n1", "attributeMeasured": "pIC50", "obsValue": 7.88}
{"smilesInput": "O=c1[nH]cc(-c2ccc(F)c(CO)c2)cc1-c1nc2cc(N3CCCNCC3)ccc2[nH]1", "attributeMeasured": "pIC50", "obsValue": 7.39}
{"smilesInput": "CCn1cc(-c2ccnc(Nc3ccc(N4CCC(C)(N)CC4)cc3)n2)c(-c2cccnc2)n1", "attributeMeasured": "pIC50", "obsValue": 7.18}
{"smilesInput": "CCn1cc(-c2ccnc(Nc3ccc(N4CCCCC4)cc3)n2)c(-c2cccnc2)n1", "attributeMeasured": "pIC50", "obsValue": 7.17}
{"smilesInput": "CC(C)(C)n1cc(-c2ccnc(Nc3ccc(N4CCNCC4)cc3)n2)c(-c2cccnc2)n1", "attributeMeasured": "pIC50", "obsValue": 7.27}

I. Cc1ccc2nc(-c3cc(-c4ccncc4)c[nH]c3=O)[nH]c2c1
II. O=c1[nH]cc(-c2ccnc3ccccc23)cc1-c1nc2cc(Oc3ccncc3)ccc2[nH]1
Field: lower recorded pIC50 (choose I or II ) Which one? Tell me its label. I
